target_desc: Peptidyl-prolyl cis-trans isomerase NIMA-interacting 1 (Homo sapiens, UniProt Q13526)
Sequence (Q13526 whole entry): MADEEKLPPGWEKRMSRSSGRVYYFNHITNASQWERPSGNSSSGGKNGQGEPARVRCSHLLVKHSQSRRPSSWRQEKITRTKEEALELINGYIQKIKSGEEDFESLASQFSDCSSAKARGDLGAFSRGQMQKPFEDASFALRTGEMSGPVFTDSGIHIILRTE
measurement_description: Inhibition of Pin1 (unknown origin) assessed as reduction in peptidyl-prolyl isomerase activity at 10 uM incubated for 30 mins using Suc-Ala-Glu-cis-Pro-Phe-4-nitroanilide substrate by protease coupled assay
Please respond with reported inhibition for every item in the list.
Number first, unit second: that is the form wanted.

Q. Please state recorded inhibition (tested on Peptidyl-prolyl cis-trans isomerase NIMA-interacting 1 (Homo sapiens, UniProt Q13526)) of "CC1(C)[C@@H](O)CC[C@]2(C)[C@H]3C(=O)C=C4[C@@H]5C[C@@](C)(C(=O)OCCCn6c(CCC(=O)O)nc7ccccc76)CC[C@]5(C)CC[C@@]4(C)[C@]3(C)CC[C@@H]12"
A. 40%

Q. Please state recorded inhibition (tested on Peptidyl-prolyl cis-trans isomerase NIMA-interacting 1 (Homo sapiens, UniProt Q13526)) of "CC1(C)C(=O)CC[C@]2(C)[C@H]3C(=O)C=C4[C@@H]5C[C@@](C)(C(=O)NCCn6c(CCC(=O)O)nc7ccccc76)CC[C@]5(C)CC[C@@]4(C)[C@]3(C)CC[C@@H]12"
A. 38%

Q. Please state recorded inhibition (tested on Peptidyl-prolyl cis-trans isomerase NIMA-interacting 1 (Homo sapiens, UniProt Q13526)) of "CC(=O)O[C@H]1CC[C@]2(C)[C@H]3CC=C4[C@@H]5C[C@@](C)(C(=O)OCCn6c(CCC(=O)O)nc7ccccc76)CC[C@]5(C)CC[C@@]4(C)[C@]3(C)CC[C@H]2C1(C)C"
A. 94%

Q. Please state recorded inhibition (tested on Peptidyl-prolyl cis-trans isomerase NIMA-interacting 1 (Homo sapiens, UniProt Q13526)) of "O=C(O)CCc1nc2ccccc2[nH]1"
A. 23%

Q. Please state recorded inhibition (tested on Peptidyl-prolyl cis-trans isomerase NIMA-interacting 1 (Homo sapiens, UniProt Q13526)) of "CC1(C)C(=O)CC[C@]2(C)[C@H]3C(=O)C=C4[C@@H]5C[C@@](C)(C(=O)NCCCn6c(CCC(=O)O)nc7ccccc76)CC[C@]5(C)CC[C@@]4(C)[C@]3(C)CC[C@@H]12"
A. 28%

Q. Please state recorded inhibition (tested on Peptidyl-prolyl cis-trans isomerase NIMA-interacting 1 (Homo sapiens, UniProt Q13526)) of "COC(=O)[C@@]1(C)CC[C@]2(C)CC[C@]3(C)C(=CC(=O)[C@@H]4[C@@]5(C)CC[C@H](OC(=O)CCn6c(CCC(=O)O)nc7ccccc76)C(C)(C)[C@@H]5CC[C@]43C)[C@@H]2C1"
A. 88%

Q. Please state recorded inhibition (tested on Peptidyl-prolyl cis-trans isomerase NIMA-interacting 1 (Homo sapiens, UniProt Q13526)) of "CC(=O)O[C@H]1CC[C@]2(C)[C@H]3C(=O)C=C4[C@@H]5C[C@@](C)(C(=O)OCCCn6c(CCC(=O)O)nc7ccccc76)CC[C@]5(C)CC[C@@]4(C)[C@]3(C)CC[C@H]2C1(C)C"
A. 100%

Q. Please state recorded inhibition (tested on Peptidyl-prolyl cis-trans isomerase NIMA-interacting 1 (Homo sapiens, UniProt Q13526)) of "CC1(C)C(=O)CC[C@]2(C)[C@H]3C(=O)C=C4[C@@H]5C[C@@](C)(C(=O)OCCn6c(CCC(=O)O)nc7ccccc76)CC[C@]5(C)CC[C@@]4(C)[C@]3(C)CC[C@@H]12"
A. 63%

Q. Please state recorded inhibition (tested on Peptidyl-prolyl cis-trans isomerase NIMA-interacting 1 (Homo sapiens, UniProt Q13526)) of "CC(=O)O[C@H]1CC[C@]2(C)[C@H]3C(=O)C=C4[C@@H]5C[C@@](C)(C(=O)NCCCn6c(CCC(=O)O)nc7ccccc76)CC[C@]5(C)CC[C@@]4(C)[C@]3(C)CC[C@H]2C1(C)C"
A. 50%

Q. Please state recorded inhibition (tested on Peptidyl-prolyl cis-trans isomerase NIMA-interacting 1 (Homo sapiens, UniProt Q13526)) of "CC1(C)[C@@H](O)CC[C@]2(C)[C@H]3CC=C4[C@@H]5C[C@@](C)(C(=O)OCCn6c(CCC(=O)O)nc7ccccc76)CC[C@]5(C)CC[C@@]4(C)[C@]3(C)CC[C@@H]12"
A. 54%

Q. Please state recorded inhibition (tested on Peptidyl-prolyl cis-trans isomerase NIMA-interacting 1 (Homo sapiens, UniProt Q13526)) of "CC1(C)C(=O)CC[C@]2(C)[C@H]3C(=O)C=C4[C@@H]5C[C@@](C)(C(=O)OCCCn6c(CCC(=O)O)nc7ccccc76)CC[C@]5(C)CC[C@@]4(C)[C@]3(C)CC[C@@H]12"
A. 77%

Q. Please state recorded inhibition (tested on Peptidyl-prolyl cis-trans isomerase NIMA-interacting 1 (Homo sapiens, UniProt Q13526)) of "CC1(C)[C@@H](O)CC[C@]2(C)[C@H]3CC=C4[C@@H]5C[C@@](C)(C(=O)OCCCn6c(CCC(=O)O)nc7ccccc76)CC[C@]5(C)CC[C@@]4(C)[C@]3(C)CC[C@@H]12"
A. 100%

Q. Please state recorded inhibition (tested on Peptidyl-prolyl cis-trans isomerase NIMA-interacting 1 (Homo sapiens, UniProt Q13526)) of "CC1(C)C(=O)CC[C@]2(C)[C@H]3CC=C4[C@@H]5C[C@@](C)(C(=O)OCCCn6c(CCC(=O)O)nc7ccccc76)CC[C@]5(C)CC[C@@]4(C)[C@]3(C)CC[C@@H]12"
A. 98%

Q. Please state recorded inhibition (tested on Peptidyl-prolyl cis-trans isomerase NIMA-interacting 1 (Homo sapiens, UniProt Q13526)) of "CC1(C)[C@@H](O)CC[C@]2(C)[C@H]3C(=O)C=C4[C@@H]5C[C@@](C)(C(=O)OCCn6c(CCC(=O)O)nc7ccccc76)CC[C@]5(C)CC[C@@]4(C)[C@]3(C)CC[C@@H]12"
A. 60%

Q. Please state recorded inhibition (tested on Peptidyl-prolyl cis-trans isomerase NIMA-interacting 1 (Homo sapiens, UniProt Q13526)) of "O=C1C=CC(=O)c2c(O)cccc21"
A. 44%

Q. Please state recorded inhibition (tested on Peptidyl-prolyl cis-trans isomerase NIMA-interacting 1 (Homo sapiens, UniProt Q13526)) of "CC1(C)C(=O)CC[C@]2(C)[C@H]3CC=C4[C@@H]5C[C@@](C)(C(=O)OCCn6c(CCC(=O)O)nc7ccccc76)CC[C@]5(C)CC[C@@]4(C)[C@]3(C)CC[C@@H]12"
A. 69%

Q. Please state recorded inhibition (tested on Peptidyl-prolyl cis-trans isomerase NIMA-interacting 1 (Homo sapiens, UniProt Q13526)) of "CC(=O)O[C@H]1CC[C@]2(C)[C@H]3C(=O)C=C4[C@@H]5C[C@@](C)(C(=O)NCCn6c(CCC(=O)O)nc7ccccc76)CC[C@]5(C)CC[C@@]4(C)[C@]3(C)CC[C@H]2C1(C)C"
A. 27%

Q. Please state recorded inhibition (tested on Peptidyl-prolyl cis-trans isomerase NIMA-interacting 1 (Homo sapiens, UniProt Q13526)) of "CC(=O)O[C@H]1CC[C@]2(C)[C@H]3C(=O)C=C4[C@@H]5C[C@@](C)(C(=O)OCCn6c(CCC(=O)O)nc7ccccc76)CC[C@]5(C)CC[C@@]4(C)[C@]3(C)CC[C@H]2C1(C)C"
A. 100%

Q. Please state recorded inhibition (tested on Peptidyl-prolyl cis-trans isomerase NIMA-interacting 1 (Homo sapiens, UniProt Q13526)) of "COC(=O)[C@@]1(C)CC[C@]2(C)CC[C@]3(C)C(=CC(=O)[C@@H]4[C@@]5(C)CC[C@H](OC(=O)Cn6c(CCC(=O)O)nc7ccccc76)C(C)(C)[C@@H]5CC[C@]43C)[C@@H]2C1"
A. 100%

Q. Please state recorded inhibition (tested on Peptidyl-prolyl cis-trans isomerase NIMA-interacting 1 (Homo sapiens, UniProt Q13526)) of "CC1(C)[C@@H](O)CC[C@]2(C)[C@H]3C(=O)C=C4[C@@H]5C[C@@](C)(C(=O)O)CC[C@]5(C)CC[C@@]4(C)[C@]3(C)CC[C@@H]12"
A. 34%
